- method_summary: co-IP from conditioned medium
- protocol_conditions: glycan lost; control: wild type
experimental_readout: oligomerisation

| protein | experimental_readout | reading |
| --- | --- | --- |
| Cbln1: Cbln1N79Q (protein) parent chain: MLGVVELLLLGTAWLAGPARGQNETEPIVLEGKCLVVCDSNPTSDPTGTALGISVRSGSAKVAFSAIRSTNHEPSEMSNRTMIIYFDQVLVNIGNNFDSERSTFIAPRKGIYSFNFHVVKVYNRQTIQVSLMLNGWPVISAFAGDQDVTREAASNGVLIQMEKGDRAYLKLERGNLMGGWKYSTFSGFLVFPL | oligomerisation | no change |
| Cbln4: Cbln4N26Q (protein) parent chain: MGSARRALSVVPAVLLILVLPVWAQNDTEPIVLEGKCLVVCDSNPATDSKGSSSSPLGISVRAANSKVAFSAVRSTNHEPSEMSNKTRIIYFDQILVNVGNFFTLESVFVAPRKGIYSFSFHVIKVYQSQTIQVNLMLNGKPVISAFAGDKDVTREAATNGVLLYLDKEDKVYLKLEKGNLLGGWQYSTFSGFLVFPL | oligomerisation | no change |
| Cbln1: Cbln1N23Q (protein) parent chain: MLGVVELLLLGTAWLAGPARGQNETEPIVLEGKCLVVCDSNPTSDPTGTALGISVRSGSAKVAFSAIRSTNHEPSEMSNRTMIIYFDQVLVNIGNNFDSERSTFIAPRKGIYSFNFHVVKVYNRQTIQVSLMLNGWPVISAFAGDQDVTREAASNGVLIQMEKGDRAYLKLERGNLMGGWKYSTFSGFLVFPL | oligomerisation | no change |
| Cbln4: Cbln4N85Q (protein) parent chain: MGSARRALSVVPAVLLILVLPVWAQNDTEPIVLEGKCLVVCDSNPATDSKGSSSSPLGISVRAANSKVAFSAVRSTNHEPSEMSNKTRIIYFDQILVNVGNFFTLESVFVAPRKGIYSFSFHVIKVYQSQTIQVNLMLNGKPVISAFAGDKDVTREAATNGVLLYLDKEDKVYLKLEKGNLLGGWQYSTFSGFLVFPL | oligomerisation | no change |
